Quick list: melting point per entry.
Where a name gives a salt, the structure may show the parent alone.
measure: melting point

>>> df
                                    compound        measure   assay_result
 0  O=C(Nc1nc2ccc(Cl)cc2c2c1ncn2-c1ccccc1Cl)c1ccccc1 [Example 72]  melting point  255 to 258 °C
 1  N/C(=N\O)c1nc2cnc3ccc(Cl)cc3c2n1-c1ccccc1Cl [Example 86]  melting point  265 to 267 °C
 2  Fc1ccc(-n2cnc3cnc4ccccc4c32)cc1 [Example 1]  melting point  161 to 162 °C
 3  Fc1ccc2ncc3ncn(-c4ccccc4F)c3c2c1 [Example 19]  melting point  162 to 163 °C
 4  Clc1ccc2nc(Cl)c3ncn(-c4ccccc4Cl)c3c2c1 [Example 75]  melting point  194 to 200 °C
 5  N=C(N)Cc1ccccc1-n1cnc2cnc3ccc(-c4ccccc4)cc3c21 [Example 70]  melting point  261 to 263 °C
 6  Fc1ccc(-n2cnc3cnc4cc(Cl)ccc4c32)cc1 [Example 15]  melting point  273 to 274 °C
 7  N/C(=N\O)c1ccccc1-n1cnc2cnc3ccc(-c4ccccc4)cc3c21 [Example 67]  melting point  249 to 251 °C
 8  Cc1nc2cnc3ccc(Cl)cc3c2n1-c1ccccc1Cl [Example 136]  melting point       177.5 °C
 9  N/C(Cc1nc2cnc3ccc(Cl)cc3c2n1-c1ccccc1Cl)=N/O (as salt: sodium) [Example 87]  melting point         114 °C
10  CCc1ccc2ncc3ncn(-c4ccccc4Cl)c3c2c1 [Example 49]  melting point  156 to 158 °C
11  COc1ccc2ncc3ncn(-c4ccccc4Cl)c3c2c1 [Example 44]  melting point  202 to 205 °C
12  NCCc1ccc(-n2cnc3cnc4ccc(Cl)cc4c32)cc1 [Example 43]  melting point  140 to 141 °C
13  [O-][n+]1cc2ncn(-c3ccccc3Cl)c2c2cc(Cl)ccc21 [Example 71]  melting point  247 to 250 °C
14  CNc1nc2ccc(Cl)cc2c2c1ncn2-c1ccccc1Cl [Example 76]  melting point  210 to 212 °C
15  Clc1ccc2ncc3nc(Br)n(-c4ccccc4Cl)c3c2c1 [Example 82]  melting point  183 to 192 °C
16  N=C(N)c1ccccc1-n1cnc2cnc3ccc(-c4ccccc4)cc3c21 [Example 69]  melting point  284 to 285 °C
17  Nc1nc2ccc(Cl)cc2c2c1ncn2-c1ccccc1Cl [Example 73]  melting point  262 to 263 °C
18  N#Cc1nc2cnc3ccc(Cl)cc3c2n1-c1ccccc1Cl [Example 84]  melting point  242 to 244 °C
19  N#Cc1nc2ccc(Cl)cc2c2c1ncn2-c1ccccc1Cl [Example 74]  melting point  248 to 250 °C

---

Reported IC50 values are given for each entry in this list.
tgt: CDK1
assay overview: Inhibition of CDK1 (p34cdc2/cyclin Bcdc13 kinase, histone H1 substrate)
stated conditions: read-out: IC50 range class, inhibition of CDK1 in vitro
measure: IC50

>>> df
                                   molecule  measure     assay_result
0  CC(C)n1c(=O)n(-c2ccccc2Cl)c2c3cc(Br)ccc3ncc21 [Example 114]     IC50         ≤ 500 nM
1  CCc1ccc2ncc3ncn(-c4ccccc4F)c3c2c1 [Example 50]     IC50         ≤ 500 nM
2  Cn1c(=O)n(-c2ccccc2Cl)c2c3cc(Br)ccc3ncc21 [Example 104]     IC50  1000 to 2000 nM
3  CCn1c(=O)n(-c2ccccc2Cl)c2c3cc(Cl)ccc3ncc21 [Example 108]     IC50         ≤ 500 nM
4  CCn1c(=O)n(-c2ccccc2Cl)c2c3cc(Br)ccc3ncc21 [Example 113]     IC50  1000 to 2000 nM
5  O=c1n(CC2CC2)c2cnc3ccc(Cl)cc3c2n1-c1ccccc1Cl [Example 128]     IC50   500 to 1000 nM
